# Test system: MCF7
# protocol_description: Antitumor activity against human MCF7 cells assessed as growth inhibition measured after 48 hrs by MTT assay
# Assay type: functional, cell-based
# setup_conditions: MCF7, 48 h
quantity: pIC50
Please keep in mind that pIC50 is minus log10 of the molar concentration; only the number is needed.

Reading of pIC50 for C[C@@H]1O[C@@H](O[C@H]2[C@H](OC[C@@]34CC[C@]5(C)C(=CC[C@@H]6[C@@]7(C)CC[C@H](O[C@@H]8O[C@H](CO[C@@H]9O[C@H](CO)[C@@H](O)[C@H](O)[C@H]9O)[C@@H](O)[C@H](O)[C@H]8O)C(C)(C)[C@@H]7CC[C@]65C)[C@@H]3CC(C)(C)[C@@H](O)[C@@H]4O)O[C@H](CO)[C@@H](O)[C@@H]2O)[C@H](O)[C@H](O)[C@H]1O with MCF7: 4.59

Reading of pIC50 for CC(=O)O[C@H]1C(=O)[C@@]2(C)[C@H]([C@H](OC(=O)c3ccccc3)[C@]3(O)C[C@H](OC(=O)[C@H](O)[C@@H](NC(=O)c4ccccc4)c4ccccc4)C(C)=C1C3(C)C)[C@]1(OC(C)=O)CO[C@@H]1C[C@@H]2O with MCF7: 4.11

Reading of pIC50 for C/C=C(/C)C(=O)O[C@H]1[C@H](OC(=O)/C(C)=C\C)[C@]2(CO)[C@H](O)[C@H](O)[C@]3(C)C(=CC[C@@H]4[C@@]5(C)CC[C@H](O[C@@H]6O[C@H](CO[C@@H]7O[C@H](CO)[C@@H](O)[C@H](O)[C@H]7O)[C@@H](O)[C@H](O)[C@H]6O[C@@H]6O[C@@H](CO)[C@H](O)[C@H]6O)C(C)(C)[C@@H]5CC[C@]43C)[C@@H]2CC1(C)C with MCF7: 5.02
